assay: soluble on expression in E. coli; label from the status in PepcDB or PDB records

>  <macromoleculeSequence>
MSWQQRVDDALTARRVTDTLRRRYVVSQGAGRWLVANGRQYLNFSSNDYLGLSQHPQIIRAWQQAATRFGVGSGGSGHISGYSVAHQALEEELAQWLGYPRALLFISGFAANQAVITALMKKNDRIVADRLSHASLLEAANLSPAQLRRFIHNDTQHLSRLLQSPCVGQQLVVTEGVYSMDGDSAPLAEIQHIARRHHAWLLVDDAHGIGVTGDEGRGTCWLRGVKPELLVVTFGKGFGVSGAAVLCSESVADYLLQFARHLVYSTSMPPAQAQALSASLAVIRSDEGGERREKLAALVQRFRAGVNASRFTLLNAHSAIQPLIVGDNSRALRLAEALRQQGCWATAIRPPTVPVGTARLRLTLTQAHEACDIDRLLEVLHGAGE

>  <soluble on expression in E. coli>
not soluble

$$$$
>  <macromoleculeSequence>
MGHHHHHHSHQHLEVRDEVAEKCQKLFLDFLEEFQSSDGEIKYLQLAEELIRPERNTLVVSFVDLEQFNQQLSTTIQEEFYRVYPYLCRALKTFVKDRKEIPLAKDFYVAFQDLPTRHKIRELTSSRIGLLTRISGQVVRTHPVHPELVSGTFLCLDCQTVIRDVEQQFKYTQPNICRNPVCANRRRFLLDTNKSRFVDFQKVRIQETQAELPRGSIPRSLEVILRAEAVESAQAGDKCDFTGTLIVVPDVSKLSTPGARAETNSRVSGVDGYETEGIRGL

>  <soluble on expression in E. coli>
not soluble

$$$$
>  <macromoleculeSequence>
MSTKPPIERIMYIQMRTSLEMFRSDLVDLEALANAAKEALEQLPYIPKEPCGKGEDDPLSGPESALRTGRLCGLVCCTATAAENALSTCSKLIDWAYANEPDGVDDAVLADDDDDDDDDDEGGGNGANGGGGTNGGGDGSNGSGNGSPPDGGGVGAAPSPGRGELAETRPSRSGVALDLTPAPAPAGTPVA

>  <soluble on expression in E. coli>
not soluble

$$$$

###

assay: soluble on expression in E. coli; label from the status in PepcDB or PDB records
property: soluble on expression in E. coli

>  <macromoleculeSequence>
TMEPERLFNLIVKTTVDTLRAQIGYIILYSPREKNLQVTTLLGHTIPEGSTTTLPMKQSSVSTWVIENRRPLLITTMDEWPQFDRYSSLGYERRTLICAPLQIKDEIIGTITVVNKDDNSTYTIQELELLSTIAAQASIAIKNAQLYDEQQATYLHTIQALVSAIEAS

>  <property>
soluble on expression in E. coli

>  <reading>
not soluble

$$$$
>  <macromoleculeSequence>
NKNFTWTSNFNLTYQRALVDKLPEGKDIQYGDGEMYLHREGESMYTFYLPEWKGVNPETGLGEFWLDPEDHSKGVVNDYSEAGKGIVGKALPDVIGGFSNTFTYKDFDLSFLITYQFGGDMFDYPGYFSHHDGVRIGSMNLSEDVAGNYWKNPGDKVDNPMPIYANPYRWDRFSSRTIKSTDNIRLREMTVGYTLPVLKKHISNFRIYFRANNLAMLWSKTKNIDPDVAINGYRQADTPALRSCVFGINIKL

>  <property>
soluble on expression in E. coli

>  <reading>
not soluble

$$$$
>  <macromoleculeSequence>
MRTFCILKDFKIFIIFFLQNPCGGEGLNILERIAKEVQEETKVRLHARNVERVLQALLKTGDFWKIVDYSDLPVPAASGIIKKFLDEGIVFIDENENILFTQKGLDLVKELGIEPFEEHKCRACEGRGIPFYDDKELYRTFVEIAKDRPKPVQQYDQGSVTPETTVSRVLFLDSRGDLRGKEIIVMGAEDDLTGLAIALTRKAKRVLIIDIDERLIDFDNRIIKELGIDNAEAMVWDLRNPYTEDFLGKFDVFITDPPETFAAFRAFIGRGIATLKDAGCAGYFGLTLRDSSIFRWKEFQEILINEYGVVITDIIQDFNDYMNWEYHPETRAAQIAPVKKNPTDIWYRSAWYRIETLPGFKRWNEPISDEVFYLDEEGSTT

>  <property>
soluble on expression in E. coli

>  <reading>
not soluble

$$$$
>  <macromoleculeSequence>
MSLSDSQTLVVKLGTSVLTGGSRRLNRAHIVELVRQCAQLHAAGHRIVIVTSGAIAAGREHLGYPELPATIASKQLLAAVGQSRLIQLWEQLFSIYGIHVGQMLLTRADMEDRERFLNARDTLRALLDNNIVPVINENDAVATAAIKVGDNDNLSALAAILAGADKLLLLTDQKGLYTADPRSNPQAELIKDVYGIDDALRAIAGDSVSGLGTGGMSTKLQAADVACRAGIDTIIAAGSKPGVIGDVMEGISVGTLFHAQATPLENRKRWIFGAPPAGEITVDEGATAAILERGSSLLPKGIKSVTGNFSRGEVIRICNLEGRDIAHGVSRYNSDALRRIAGHHSQEIDAILGYEYGPVAVHRDDMITREGHHHHHH

>  <property>
soluble on expression in E. coli

>  <reading>
soluble

$$$$
>  <macromoleculeSequence>
MGSEKMIEICIDMEEGEPLGATPNDKLVITKIQAGTISEGKLRIGDQVKKVNGQNCKDCNDFFRALRFAAPCAKITVNRDEKKAEELEARVHIPEDRAKIIQRREGYVYELATLVWVQNGPKLGLGIKHFQNRVLVSRVDPGSLAEKCLVLGDHLCDVDGIPVSDKDVARDLLVKNIQEKGKVTFVVERPDSIDAKQWAKQALATNLMQPPSVQMNEDVKGIASQYRQALPGLKPPAKSAMSTGPNARRVSIIEQTQTHEIGHDHEGKALRKVK

>  <property>
soluble on expression in E. coli

>  <reading>
soluble

$$$$
>  <macromoleculeSequence>
SMEEKLENEPDFQYIPEKAPLDSVHQDDHSLRESMIQLAEGLITGTVLTQFDQLYRKKPGMTMSCAKLPQNISKNRYRDISPYDATRVILKGNEDYINANYINMEIPSSSIINQYIACQGPLPHTCTDFWQMTWEQGSSMVVMLTTQVERGRVKCHQYWPEPTGSSSYGCYQVTCHSEEGNTAYIFRKMTLFNQEKNESRPLTQIQYIAWPDHGVPDDSSDFLDFVCHVRNKRAGKEEPVVVHCSAGIGRTGVLITMETAMCLIECNQPVYPLDIVRTMRDQRAMMIQTPSQYRFVCEAILKVYEEGFVKPLTTSTNKLT

>  <property>
soluble on expression in E. coli

>  <reading>
soluble

$$$$
>  <macromoleculeSequence>
MQAVSVDETKNTVVLRAEHKNEEGRKSVDKFEVKTRNPETIKSVERKLMEKGVQRMDRHPSDGIPLRRPPSKSGHGGKYTWEGPDRMEDYEMQPDPPAMDEGDPNYDEEQVKKSGDDVAVELVKGEVEVAKEAPAGVARVEVDPRLVGR

>  <property>
soluble on expression in E. coli

>  <reading>
soluble

$$$$
>  <macromoleculeSequence>
MHHHHHHGSMGMMSRYEELRKELPAQPKVWLITGVAGFIGSNLLETLLKLDQKVVGLDNFATGHQRNLDEVRSLVSEKQWSNFKFIQGDIRNLDDCNNACAGVDYVLHQAALGSVPRSINDPITSNATNIDGFLNMLIAARDAKVQSFTYAASSSTYGDHPGLPKVEDTIGKPLSPYAVTKYVNELYADVFSRCYGFSTIGLRYFNVFGRRQDPNGAYAAVIPKWTSSMIQGDDVYINGDGETSRDFCYIENTVQANLLAATAGLDARNQVYNIAVGGRTSLNQLFFALRDGLAENGVSYHREPVYRDFREGDVRHSLADISKAAKLLGYAPKYDVSAGVALAMPWYIMFLK

>  <property>
soluble on expression in E. coli

>  <reading>
soluble

$$$$
>  <macromoleculeSequence>
MILMIDNYDSFTFNLVQFLGELGQELVVKRNDEVTISDIENMKPDFLMISPGPCSPNEAGISMDVIRYFAGKIPIFGVCLGHQSIAQVFGGEVVRAERLMHGKTSPMHHDGKTIFSDIPNPFTATRYHSLIVKKETLPDCLEVTSWTEEGEIMALRHTTLPIEGVQFHPESIMTSHGKELLQNFIRKYSPSVTSC

>  <property>
soluble on expression in E. coli

>  <reading>
not soluble

$$$$
>  <macromoleculeSequence>
MKAKREALISLFHAIKEEKVDSDIIDLLLLINSIKGIYTTSSCSGRIGILEEPSLGAKPLSRWLIKVHRPMSFEEARDALKRAREGLIFLKSQPPIFHVVAETIENAKLVHEIGLASGFKYTTFKAISSRFLVEINGTEYLTVPLGKDGRIIASDEYLKFAISIGNKMLERGKSKLPRLRDNFEKIKKKLGEDPLFIQLKREILEILEHHHHHH

>  <property>
soluble on expression in E. coli

>  <reading>
not soluble

$$$$
>  <macromoleculeSequence>
MIVMATCLLPDETDDACARNPWISHELVTSTVGPGDGLDLRAACSTGTLISGGCSADTFPDDELSLMRSGFAPDNRDEWLCSFKSLHESVTYEVATMAFCLNEDPLPAECGCCPPLAEQLTIRQTNEPLRNGPNRLEASCEDDEFLLIGNCMLDVPAVSEVESVTMFRYGYPPTDEHPDGDYSKWGCSWHNPTGYTPRALANAVCLPAQ

>  <property>
soluble on expression in E. coli

>  <reading>
not soluble

$$$$
